Species: Homo sapiens
assayDetails: Selectivity index, ratio of IC50 for human MAO-A to IC50 for human MAO-B
readoutName: Ratio IC50

>>> print(df.to_string())
                           compoundstring  readoutname  quantitativeresult
0  O=C(Nc1ccc(O)c(O)c1)c1cc(=O)c2ccccc2o1   Ratio IC50               0.071

1 = COc1ccc(NC(=O)c2coc3ccccc3c2=O)cc1O
2 = O=C(Nc1ccc(O)c(O)c1)c1coc2ccccc2c1=O
3 = O=C(Nc1ccc(O)cc1)c1cc(=O)c2ccccc2o1
Order the records, beginning with the lowest Ratio IC50 and ending with the highest. Thanks in advance for listing the labels in the requested order.
3, 2, 1
(3: 1.6, 2: 2.7, 1: 110)
